pKi: −log10 of the molar value.
Values of pKi for Beta-secretase 2 (Homo sapiens, UniProt Q9Y5Z0), collected from a number of published sources:

- compound: "CN1C(=N)N[C@](C)(c2sc(-c3nnc(-c4ccc(-c5ccon5)cc4)o3)cc2Cl)CS1(=O)=O"
  relation symbol: "="
  pKi: 6.61
- compound: "COc1cc([C@]23CO[C@@H](C)C[C@H]2C(=O)N(C)C(=N)N3)c(F)cn1"
  relation symbol: "="
  pKi: 6.81
- compound: "CCN(c1cc(C(=O)NC(C)c2ccccc2)cc(C(=O)NC(Cc2ccccc2)C(O)CNCc2cccc(OC)c2)c1)S(C)(=O)=O (stereo not shown)"
  relation symbol: ">"
  pKi: 6.52
- compound: "CN1C(=N)N[C@@]2(c3cc(NC(=O)c4cnc(C(F)(F)F)cn4)ccc3F)COC[C@H]2S1(=O)=O"
  relation symbol: "="
  pKi: 7.26
- compound: "Cc1nc(C(=O)Nc2ccc3c(c2)[C@]2(COC3)CS(=O)(=O)C(C)(C)C(=N)N2)co1"
  relation symbol: "="
  pKi: 8.15
- compound: "Cc1csc(CNC(=O)C[C@H](NC(=O)OC(C)(C)C)C(=O)N[C@@H](CC(C)C)[C@@H](O)C[C@@H](C)C(=O)N[C@H](C(=O)NCC(C)C)C(C)C)n1"
  relation symbol: "<"
  pKi: 6.22
- compound: "CC(C)COc1ccc(F)c([C@]23CO[C@@H](C4CC4)C[C@H]2C(=O)N(C)C(=N)N3)c1"
  relation symbol: "="
  pKi: 7.60
- compound: "CN1C(=N)N[C@](C)(c2sc(-c3nnc(-c4ccc(OC(F)F)cc4)o3)cc2Cl)CS1(=O)=O"
  relation symbol: "="
  pKi: 6.88
- compound: "COc1cnc(C(=O)Nc2ccc3c(c2)[C@]2(COC3)CS(=O)(=O)C(C)(C)C(=N)N2)cn1"
  relation symbol: "="
  pKi: 6.73
- compound: "COc1ccc(C(=O)Nc2ccc(F)c([C@]3(C)CS(=O)(=O)C4(CC4)C(=N)N3)c2)nc1"
  relation symbol: "="
  pKi: 8.72
- compound: "CN1C(=N)N[C@](C)(c2cc(N[C@H]3CCc4cc(C#N)cnc43)ccc2F)CS1(=O)=O"
  relation symbol: "="
  pKi: 7.65
- compound: "COc1nc(N2CC3[C@](c4cc(NC(=O)c5ccc(F)cn5)ccc4F)(C2)NC(=N)N(C)S3(=O)=O)nc(C)c1F (mixture of isomers)"
  relation symbol: "="
  pKi: 8.80
- compound: "CN1C(=N)N[C@@]2(c3cc(Oc4ncccc4F)ccc3F)CO[C@@H](C3CC3)C[C@H]2C1=O"
  relation symbol: "="
  pKi: 8.10
- compound: "C[C@@]1(c2sc(-c3ccc(F)c(C#N)c3)cc2Cl)Cc2ncncc2C(=N)N1"
  relation symbol: "="
  pKi: 7.78
- compound: "CC(C)CNC(=O)C(NC(=O)C(C)CC(O)C(CC(C)C)NC(=O)c1cccc(C(=O)N(C)Cc2cccnc2)c1)C(C)C (stereo not shown)"
  relation symbol: ">"
  pKi: 6.39
- compound: "CCN1CCCC1CNC(=O)C(NC(=O)C(C)CC(O)C(CC(C)C)NC(=O)c1cc(C(=O)NC(C)c2ccccc2)cc(N(C)S(C)(=O)=O)c1)C(C)C (stereo not shown)"
  relation symbol: ">"
  pKi: 6.39
- compound: "CN1C(=N)N[C@](C)(c2cc(NC(=S)c3ccc(F)cn3)cc(F)c2F)CS1(=O)=O"
  relation symbol: "="
  pKi: 8.52
- compound: "C[C@@]1(c2cc(NC(=O)c3ccn(C(F)F)n3)ccc2F)CS(=O)(=O)C2(CCCC2)C(=N)N1"
  relation symbol: "="
  pKi: 8.37
- compound: "C#CCOc1ccc(C(=O)Nc2ccc3c(c2)[C@]2(CCC3)CS(=O)(=O)C(C)(C)C(=N)N2)nc1"
  relation symbol: "="
  pKi: 7.29
- compound: "CCS(=O)(=O)C1(C)CCC(CF)(c2cc(NC(=O)c3cc4c(cn3)OC(F)(F)CO4)ccc2F)N=C1N (stereo not shown)"
  relation symbol: "="
  pKi: 7.82
- compound: "CC1(S(C)(=O)=O)CCC(CF)(c2cc(NC(=O)c3cc4c(cn3)OCCCO4)ccc2F)N=C1N (stereo not shown)"
  relation symbol: "="
  pKi: 6.34
- compound: "CN1C(=N)N[C@@]2(c3cc(Oc4ncccn4)ccc3F)CO[C@@H](C3CC3)C[C@H]2C1=O"
  relation symbol: "="
  pKi: 6.72
- compound: "Cc1csc(CN(C)C(=O)c2cccc(C(=O)NC(Cc3ccccc3)C(O)CNC(C)c3ccccc3)c2)n1 (stereo not shown)"
  relation symbol: ">"
  pKi: 6.52
- compound: "Cc1csc(CN(C(=O)c2cccc(C(=O)NC(Cc3ccccc3)C(O)CNCc3cncc(C(C)C)c3)c2)C2CC2)n1 (stereo not shown)"
  relation symbol: ">"
  pKi: 6.52
- compound: "Cc1nc(COC(=O)N[C@@H](CS(C)(=O)=O)C(=O)N[C@H](CC(C)C)[C@@H](O)C[C@@H](C)C(=O)N[C@@H](C(=O)NCc2cccnc2)C(C)C)c(C)o1"
  relation symbol: ">"
  pKi: 7.00
- compound: "CN1C(=N)N[C@](C)(c2sc(-c3nnc(-c4ccc(C#N)cc4)o3)cc2Cl)CS1(=O)=O"
  relation symbol: "="
  pKi: 7.35
